test system: HepG2; test: Antiproliferative activity against human HepG2 cells assessed as inhibition of cell proliferation measured after 72 hrs by MTT assay; type: functional, cell-based; conditions: HepG2, 72 h
IC50 values by entry
Report as a plain number; the unit µM is understood.

Enquiry: Entry CC1=C(O)C(=O)C=C2C1=CC=C1[C@@]2(C)CC[C@@]2(C)[C@@H]3C[C@](C)(C(=O)NC(CCC(=O)NC(CCC(=O)OC(C)(C)C)C(=O)OC(C)(C)C)C(=O)OC(C)(C)C)CC[C@]3(C)CC[C@]12C (some centres not stated) has what IC50?
Return: 4.27

// moving on: another record for IC50
Enquiry: Entry CC1=C(O)C(=O)C=C2C1=CC=C1[C@@]2(C)CC[C@@]2(C)[C@@H]3C[C@](C)(C(=O)NCCCNC(=O)[C@@]4(C)CC[C@@]5(C)CC[C@@]6(C)C7=CC=C8C(=CC(=O)C(O)=C8C)[C@@]7(C)CC[C@]6(C)[C@H]5C4)CC[C@]3(C)CC[C@]12C has what IC50?
Return: 1.17

###

experiment: Induction of apoptosis in human L02 cells assessed as viable cells at 1 uM measured after 24 hrs by Annexin-V/PI staining based flow cytometry assay (reference value: 97.5%); assay type: cell-based; details: read-out: Activity
metric: viability at 24 h, 1 µM

Enquiry: Entry CC1=C(O)C(=O)C=C2C1=CC=C1[C@@]2(C)CC[C@@]2(C)[C@@H]3C[C@](C)(C(=O)NC(CCC(=O)NC(CCC(=O)OC(C)(C)C)C(=O)OC(C)(C)C)C(=O)OC(C)(C)C)CC[C@]3(C)CC[C@]12C (stereo partly drawn) has what viability at 24 h, 1 µM?
Return: 86.7%

Enquiry: Entry CC1=C(O)C(=O)C=C2C1=CC=C1[C@@]2(C)CC[C@@]2(C)[C@@H]3C[C@](C)(C(=O)NC(CC(=O)OC(C)(C)C)C(=O)NC(CC(=O)OC(C)(C)C)C(=O)OC(C)(C)C)CC[C@]3(C)CC[C@]12C (stereo partly drawn) has what viability at 24 h, 1 µM?
Return: 82.6%

// moving on: another record for viability at 24 h, 1 µM
Enquiry: Entry CC1=C(O)C(=O)C=C2C1=CC=C1[C@@]2(C)CC[C@@]2(C)[C@@H]3C[C@](C)(C(=O)O)CC[C@]3(C)CC[C@]12C has what viability at 24 h, 1 µM?
Return: 70.8%

###

selectivity ratio values by entry
experiment: Selectivity index, ratio of IC50 for human L02 cells to IC50 for human HepG2 cells; format: toxicity; conditions: L02 cells versus HepG2 cells, read-out: Ratio IC50
Respond with the number and no other words.

A selection of reference data follows.
Enquiry: Entry CC1=C(O)C(=O)C=C2C1=CC=C1[C@@]2(C)CC[C@@]2(C)[C@@H]3C[C@](C)(C(=O)NC(CCC(=O)NC(CCC(=O)OC(C)(C)C)C(=O)OC(C)(C)C)C(=O)OC(C)(C)C)CC[C@]3(C)CC[C@]12C (some centres undefined) has what selectivity ratio?
Return: 2.23

Enquiry: Entry CC1=C(O)C(=O)C=C2C1=CC=C1[C@@]2(C)CC[C@@]2(C)[C@@H]3C[C@](C)(C(=O)NC(CC(=O)OC(C)(C)C)C(=O)NC(CC(=O)OC(C)(C)C)C(=O)OC(C)(C)C)CC[C@]3(C)CC[C@]12C (some centres undefined) has what selectivity ratio?
Return: 4.6

Enquiry: Entry CC1=C(O)C(=O)C=C2C1=CC=C1[C@@]2(C)CC[C@@]2(C)[C@@H]3C[C@](C)(C(=O)NC(CC(=O)OC(C)(C)C)C(=O)NC(CCC(=O)OC(C)(C)C)C(=O)OC(C)(C)C)CC[C@]3(C)CC[C@]12C (some centres undefined) has what selectivity ratio?
Return: 2.23

// moving on: another record for selectivity ratio
Enquiry: Entry CC1=C(O)C(=O)C=C2C1=CC=C1[C@@]2(C)CC[C@@]2(C)[C@@H]3C[C@](C)(C(=O)O)CC[C@]3(C)CC[C@]12C has what selectivity ratio?
Return: 0.82

Data provenance is ChEMBL document CHEMBL4842337.
